Biological target: HLA-A*0301 (human)
Assay: iTopia affinity
The entries below come with measured ED50 values attached.
Parameter measured: ED50 (µM)

>>> print(df.to_string())
                                binder  parameter_measured  observed
 0  VQTSRAAAK [cdr2 379-387 VQTSRAAAK]                ED50        18
 1  LTVPESHRK [cdr2 296-304 LTVPESHRK]                ED50        26
 2  QLGATGAYR [cdr2 236-244 QLGATGAYR]                ED50        15
 3  KEIFSCIKK [cdr2 427-435 KEIFSCIKK]                ED50        13
 4    LQLAAELGK [cdr2 28-36 LQLAAELGK]                ED50        15
 5  ESHRKPLKR [cdr2 300-308 ESHRKPLKR]                ED50        19
 6  CIRRAKAVK [cdr2 331-339 CIRRAKAVK]                ED50        14
 7  TQYSALKVK [cdr2 351-359 TQYSALKVK]                ED50       7.5
 8  HPFVNGVEK [cdr2 265-273 HPFVNGVEK]                ED50        34
 9  PAPSFACLK [cdr2 154-162 PAPSFACLK]                ED50        11
10    RQMNEQHAK [cdr2 74-82 RQMNEQHAK]                ED50        58
11  GQGRRSPGK [cdr2 140-148 GQGRRSPGK]                ED50       7.8
12  LQAQLSLER [cdr2 205-213 LQAQLSLER]                ED50        19
13  SLAGSDIVK [cdr2 317-325 SLAGSDIVK]                ED50        11
14  AQLSLERQK [cdr2 207-215 AQLSLERQK]                ED50        25
15  VYDHVFAEK [cdr2 172-180 VYDHVFAEK]                ED50        25
